Target: Peroxisome proliferator-activated receptor alpha (Mus musculus, UniProt P23204)
Sequence (P23204 whole entry, the tested form may be a part): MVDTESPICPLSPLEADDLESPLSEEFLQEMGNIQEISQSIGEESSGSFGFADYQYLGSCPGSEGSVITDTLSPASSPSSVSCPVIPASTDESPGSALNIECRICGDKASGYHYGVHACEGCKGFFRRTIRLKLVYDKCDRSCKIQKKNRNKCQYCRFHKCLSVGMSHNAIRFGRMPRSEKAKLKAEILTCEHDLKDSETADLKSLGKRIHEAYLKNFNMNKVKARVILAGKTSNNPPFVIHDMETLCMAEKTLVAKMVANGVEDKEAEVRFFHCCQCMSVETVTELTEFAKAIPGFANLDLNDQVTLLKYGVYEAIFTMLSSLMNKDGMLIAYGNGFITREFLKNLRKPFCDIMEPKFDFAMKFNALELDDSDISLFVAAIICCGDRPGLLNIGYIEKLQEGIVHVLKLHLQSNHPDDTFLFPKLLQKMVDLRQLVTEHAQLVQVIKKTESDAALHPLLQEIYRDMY
Test: Compound was tested for its agonist activity against murine Peroxisome proliferator activated receptor alpha-Gal4 chimeric receptor transfected CV-1 cells
Could you please mark Satisfied for values of EC50 below 30 nM and Not satisfied for values at or above it?

Examples from the recorded data:
CC(C)(Oc1ccc(Cl)cc1)C(=O)O : Not satisfied
CCCCCCCN(CCc1ccc(OC(C)(C)C(=O)O)cc1)C(=O)Nc1ccc(F)cc1F : Satisfied
CC(C)(Oc1ccc(CCN(CCCCCC2CCCCC2)C(=O)Nc2ccc(F)cc2)cc1)C(=O)O : Not satisfied
CCCCCCCN(CCc1ccc(SC(C)(C)C(=O)O)cc1)C(=O)Nc1ccc(F)cc1F : Satisfied
CC(C)(Oc1ccc(CCNC(=O)c2ccc(Cl)cc2)cc1)C(=O)O [BEZAFIBRATE] : Not satisfied
CCCCCCCN(CCc1ccc(OC(C)(C)C(=O)O)cc1)C(=O)Nc1ccc(F)cc1 : Not satisfied

Then there is this compound:
Hello, is EC50 of the following compound strictly smaller than 30 nM? CC(C)(Oc1ccc(CCN(C(=O)Nc2ccc(F)cc2F)C2CCCCCC2)cc1)C(=O)O
Not satisfied

###

Biological target: Peroxisome proliferator-activated receptor gamma (Mus musculus, UniProt P37238)
Sequence (P37238 whole entry, the tested form may be a part): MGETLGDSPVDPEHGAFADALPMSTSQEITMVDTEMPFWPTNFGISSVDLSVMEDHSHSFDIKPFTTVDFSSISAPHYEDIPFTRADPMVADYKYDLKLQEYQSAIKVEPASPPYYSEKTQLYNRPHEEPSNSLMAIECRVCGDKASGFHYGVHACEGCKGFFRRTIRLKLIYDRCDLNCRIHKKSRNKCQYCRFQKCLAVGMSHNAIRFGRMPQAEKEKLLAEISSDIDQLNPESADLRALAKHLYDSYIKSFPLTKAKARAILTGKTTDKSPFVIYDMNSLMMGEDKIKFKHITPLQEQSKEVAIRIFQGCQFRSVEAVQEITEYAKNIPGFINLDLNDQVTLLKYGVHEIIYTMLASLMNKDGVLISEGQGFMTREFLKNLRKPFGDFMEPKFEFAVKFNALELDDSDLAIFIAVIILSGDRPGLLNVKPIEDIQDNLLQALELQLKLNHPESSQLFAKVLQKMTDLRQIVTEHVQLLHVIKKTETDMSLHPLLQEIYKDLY
Assay: Compound was tested for its agonist activity against murine Peroxisome proliferator activated receptor gamma-Gal4 chimeric receptor in transfected CV-1 cells
Measured pEC50 by item
Entry type: numeric. Quantity: pEC50, the -log10 of concentration in molar units.

CC(C)(Oc1ccc(C(=O)c2ccc(Cl)cc2)cc1)C(=O)O : 3.60
CC(C)(Oc1ccc(CCNC(=O)c2ccc(Cl)cc2)cc1)C(=O)O [BEZAFIBRATE] : 4.26

Now look at this entry.
Dear colleague, please send me the reported pEC50 for CCCCCCCN(CCc1ccc(SC(C)(C)C(=O)O)cc1)C(=O)Nc1ccc(F)cc1F when you can.
5.82

###

Biological target: Peroxisome proliferator-activated receptor delta (Homo sapiens, UniProt Q03181)
Sequence (Q03181 whole entry): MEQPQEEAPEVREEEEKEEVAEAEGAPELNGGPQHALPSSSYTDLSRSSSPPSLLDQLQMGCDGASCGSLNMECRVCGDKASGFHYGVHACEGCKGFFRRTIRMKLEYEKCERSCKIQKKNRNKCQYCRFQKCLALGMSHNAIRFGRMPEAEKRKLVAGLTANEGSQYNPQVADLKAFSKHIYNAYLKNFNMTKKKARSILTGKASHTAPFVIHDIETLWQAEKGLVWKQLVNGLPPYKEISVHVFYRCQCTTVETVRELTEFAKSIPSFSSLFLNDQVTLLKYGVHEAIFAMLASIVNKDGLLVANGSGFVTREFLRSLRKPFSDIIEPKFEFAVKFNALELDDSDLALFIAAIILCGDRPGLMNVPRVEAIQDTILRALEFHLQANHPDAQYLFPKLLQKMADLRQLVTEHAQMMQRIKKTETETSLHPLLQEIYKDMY
Experiment: Compound was tested for agonist activity on human Peroxisome proliferator activated receptor delta-GAL4 chimeric receptor in transfected CV-1 cells
Assay type: functional, cell-based
Measured pEC50 by item
Entry type: numeric. Quantity: pEC50, the -log10 of concentration in molar units.

Some entries whose results are on file:
CCCCCCCN(CCc1ccc(SC(C)(C)C(=O)O)cc1)C(=O)Nc1ccc(F)cc1F [GSK-9578] : 5.85
CC(C)(Oc1ccc(CCN(C(=O)Nc2ccc(F)cc2F)C2CCCCCC2)cc1)C(=O)O : 6.10
CC(C)(Oc1ccc(CCNC(=O)c2ccc(Cl)cc2)cc1)C(=O)O [BEZAFIBRATE] : 4.70

Now look at this entry.
Answer briefly: pEC50 recorded on Peroxisome proliferator-activated receptor delta (Homo sapiens, UniProt Q03181) for CCCCCCCN(CCc1ccc(OC(C)(C)C(=O)O)cc1)C(=O)Nc1ccc(F)cc1
5.51

###

Molecular target: Peroxisome proliferator-activated receptor gamma (Homo sapiens)
Sequence (P37231 whole entry): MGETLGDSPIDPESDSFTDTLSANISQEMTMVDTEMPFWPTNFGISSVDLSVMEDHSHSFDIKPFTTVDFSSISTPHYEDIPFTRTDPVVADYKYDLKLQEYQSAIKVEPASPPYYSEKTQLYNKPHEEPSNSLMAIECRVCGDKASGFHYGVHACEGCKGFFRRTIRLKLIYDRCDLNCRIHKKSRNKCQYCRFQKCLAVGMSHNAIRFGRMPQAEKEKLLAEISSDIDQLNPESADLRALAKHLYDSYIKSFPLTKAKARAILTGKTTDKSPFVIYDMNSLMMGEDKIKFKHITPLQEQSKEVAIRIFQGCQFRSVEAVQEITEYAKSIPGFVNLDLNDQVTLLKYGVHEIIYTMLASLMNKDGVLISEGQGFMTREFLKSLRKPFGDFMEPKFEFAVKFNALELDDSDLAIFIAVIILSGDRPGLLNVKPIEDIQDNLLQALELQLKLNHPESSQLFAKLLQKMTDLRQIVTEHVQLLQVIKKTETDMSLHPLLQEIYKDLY
Could you please mark True for values of EC50 below 2000 nM and False for values at or above it?

CC(C)(Oc1ccc(CCN(CCCCCC2CCCCC2)C(=O)Nc2ccc(F)cc2)cc1)C(=O)O : True
CC(C)(Oc1ccc(CCNC(=O)c2ccc(Cl)cc2)cc1)C(=O)O [BEZAFIBRATE] : False
CC(C)(Oc1ccc(CCN(C(=O)Nc2ccc(F)cc2F)C2CCCCCC2)cc1)C(=O)O : True
CC(C)(Oc1ccc(Cl)cc1)C(=O)O [CLOFIBRIC ACID] : False
CCCCCCCN(CCc1ccc(OC(C)(C)C(=O)O)cc1)C(=O)Nc1ccc(F)cc1F : True

Then there is this molecule:
Hello, is EC50 of the following molecule strictly smaller than 2000 nM? CCCCCCCN(CCc1ccc(OC(C)(C)C(=O)O)cc1)C(=O)Nc1ccc(F)cc1
True

###

Biological target: Peroxisome proliferator-activated receptor delta (Mus musculus, UniProt P35396)
Sequence (P35396 whole entry, the tested form may be a part): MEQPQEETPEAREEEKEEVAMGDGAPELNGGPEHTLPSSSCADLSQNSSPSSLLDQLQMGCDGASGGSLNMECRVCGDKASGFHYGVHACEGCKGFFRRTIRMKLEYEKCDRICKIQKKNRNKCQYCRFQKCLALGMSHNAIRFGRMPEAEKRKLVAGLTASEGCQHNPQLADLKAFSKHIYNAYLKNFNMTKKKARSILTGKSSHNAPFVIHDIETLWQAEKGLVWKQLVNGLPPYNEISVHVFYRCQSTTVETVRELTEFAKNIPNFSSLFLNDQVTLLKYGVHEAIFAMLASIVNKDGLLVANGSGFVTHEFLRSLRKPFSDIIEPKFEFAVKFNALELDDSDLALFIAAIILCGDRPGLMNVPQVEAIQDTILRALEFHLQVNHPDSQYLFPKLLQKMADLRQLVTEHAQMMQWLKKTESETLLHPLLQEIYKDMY
Experiment: Compound was tested for its agonist activity against murine Peroxisome proliferator activated receptor delta-GAL4 chimeric receptor in transfected CV-1 cells
Format: functional, cell-based
Measured EC50 by item
# value in µM; strip the unit string

Some entries whose results are on file:
CCCCCCCN(CCc1ccc(OC(C)(C)C(=O)O)cc1)C(=O)Nc1ccc(F)cc1F : 3.2
CC(C)(Oc1ccc(CCN(CCCCCC2CCCCC2)C(=O)Nc2ccc(F)cc2)cc1)C(=O)O : 23
CCCCCCCN(CCc1ccc(OC(C)(C)C(=O)O)cc1)C(=O)Nc1ccc(F)cc1 : 5.5
CC(C)(Oc1ccc(CCNC(=O)c2ccc(Cl)cc2)cc1)C(=O)O [BEZAFIBRATE] : 110
CCCCCCCN(CCc1ccc(SC(C)(C)C(=O)O)cc1)C(=O)Nc1ccc(F)cc1F [GSK-9578] : 2.6

Now look at this entry.
Dear colleague, please send me the reported EC50 for CC(C)(Oc1ccc(CCN(C(=O)Nc2ccc(F)cc2F)C2CCCCCC2)cc1)C(=O)O when you can.
1.4

###

Target: Peroxisome proliferator-activated receptor gamma (Mus musculus, UniProt P37238)
Test: Compound was tested for its agonist activity against murine Peroxisome proliferator activated receptor gamma-Gal4 chimeric receptor in transfected CV-1 cells
measuredEndpoint: pEC50
Entry type: numeric. Quantity: pEC50, the -log10 of concentration in molar units.

CCCCCCCN(CCc1ccc(OC(C)(C)C(=O)O)cc1)C(=O)Nc1ccc(F)cc1F : 6.40
CC(C)(Oc1ccc(CCN(CCCCCC2CCCCC2)C(=O)Nc2ccc(F)cc2)cc1)C(=O)O : 6.00
CCCCCCCN(CCc1ccc(OC(C)(C)C(=O)O)cc1)C(=O)Nc1ccc(F)cc1 : 6.06

Now look at this entry.
Dear colleague, please send me the reported pEC50 for CC(C)(Oc1ccc(CCN(C(=O)Nc2ccc(F)cc2F)C2CCCCCC2)cc1)C(=O)O when you can.
7.92
